# assay.info: qHTS Assay for Lipid Storage Modulators in Drosophila S3 Cells
# test.context: BODIPY lipid droplet fluorescence, 18-24 h, cells fed with added oleic acid; series mostly up to 46.1 µM
Among all 320,000 compounds or so, about 2,100 (0.66%) were called active. Inconclusive results (about 53%) are left out. Calls come from the whole dose curve; as a rule, active = well fitted inhibition curve with a large enough effect in the signal ratio, with a control signal flat (not every such curve was filed as active); inconclusive = small, poorly fitted or top-dose-only effect, or effect the other way, or a change in a side signal; inactive = flat fitted curve, though single readings scatter; the % refers to the signal ratio. Only a selection was taken, and actives are over-represented in it overall.
Outcome field: choose from active, inactive

Check out these entries, answers already filled in.
| molecule | cat |
| --- | --- |
| COc1ccccc1-c1nc(S(=O)(=O)c2ccccc2)c(N2CCCCC2)o1 | active |
| O=C(CN1C(=O)CCS(=O)(=O)c2ccccc21)NCc1ccc2c(c1)OCO2 | inactive |
| O=C(Nc1cnccn1)Nc1cccc(Cl)c1Cl | inactive |
| O=S(=O)(c1ccccc1)c1nc(-c2ccccc2)oc1N1CCCC1 | inactive |
| Cn1ncc(N=Cc2ccccc2[N+](=O)[O-])c1C(N)=O | inactive |

Could you now look at the following molecule, please?
Task: In this assay, the call recorded for O=C(NC1CCCC1)C1CCC(=O)N1C1CCCCC1 (stereo unspecified) was what?
Output: inactive
